assay: 1- to 5-day PK with topical ocular Compound-I formulations (Example 5); type: in vivo, Dutch Belted rabbits; settings: Dutch Belted, rabbit, cornea, topical, 30 μL bilateral (each eye), Groups 1, 5: one dose day 1; 2 hr post-dose; read-out: Average Concentration Cornea
PARAMETER MEASURED: concentration at 2 h (µM)
The response must be a number in µM with no trailing unit.

Determine from records and report concentration at 2 h for Cl.NC(=O)c1c(OCc2c(F)cc(Br)cc2F)nsc1NC(=O)NCCCCN1CCCC1 [Compound-I, hydrochloride]
28.1

----------
test: 1- to 5-day PK with topical ocular Compound-I formulations (Example 5); assay type: in vivo, Dutch Belted rabbits; settings: Dutch Belted, rabbit, central retina, topical, 30 μL per eye (bilateral), q.d. groups (2,6,8,11,13), 4 days; 24 hr after day 5 morning dose; read-out: Average Concentration Central Retina
PARAMETER MEASURED: concentration at 24 h
Quick note: number first, unit second.

Indicate its recorded concentration at 24 h; the compound in question is Cl.NC(=O)c1c(OCc2c(F)cc(Br)cc2F)nsc1NC(=O)NCCCCN1CCCC1 [Compound-I, hydrochloride]
24.6 nM

----------
test: Ocular pharmacokinetics of formulations, Example 20-4; format: in vivo, Dutch Belted rabbits; conditions: Dutch Belted, rabbit, central retina, topical, 0.3 mg/mL (30 μL per eye, bilateral), pH 6, Group 1: 0.3 mg/mL Salt, pH 6, BID; Day 5, 1 hr post dose; read-out: Central Retina concentration
PARAMETER MEASURED: concentration at 1 h (nM)
Response body: numeric value in nM, unit text excluded.

Please look at this compound and report its concentration at 1 h: Cl.NC(=O)c1c(OCc2c(F)cc(Br)cc2F)nsc1NC(=O)NCCCCN1CCCC1 [Compound-I, hydrochloride]
16.3

----------
experiment: Concentrations of Compound-I in ocular fluids and tissues, 0.4% cyclodextrin solutions, 24-day study; assay type: in vivo, Dutch-Belted rabbits; settings: Dutch-Belted, rabbit, central retina, topical, 0.4 % (4 mg/mL); 0.4% cyclodextrin-based solutions, twice daily, day 24, 1 hour after first daily dose; read-out: Central retina concentration, range over solutions
PARAMETER MEASURED: concentration at 1 h

Answer with reported concentration at 1 h of Cl.NC(=O)c1c(OCc2c(F)cc(Br)cc2F)nsc1NC(=O)NCCCCN1CCCC1 [Compound-I, hydrochloride]
53.1 to 124 nM

----------
test: 1- to 5-day PK with topical ocular Compound-I formulations (Example 5); type: in vivo, Dutch Belted rabbits; conditions: Dutch Belted, rabbit, peripheral choroid, topical, 30 μL (bilateral), Groups 1, 5: one dose day 1; 8 hr post-dose; read-out: Average Concentration Peripheral Choroid
PARAMETER MEASURED: concentration at 8 h (nM)
Write down the numeric answer in nM and omit the unit.

Recall and state the measured concentration at 8 h for Cl.NC(=O)c1c(OCc2c(F)cc(Br)cc2F)nsc1NC(=O)NCCCCN1CCCC1 [Compound-I, hydrochloride] .
87.4

----------
experiment: 1- to 5-day PK with topical ocular Compound-I formulations (Example 5); type: in vivo, Dutch Belted rabbits; conditions: Dutch Belted, rabbit, central choroid, topical, 30 μL per eye (bilateral), b.i.d. groups (3,7), 4 days; 24 hr after day 5 morning dose; read-out: Average Concentration Central Choroid
PARAMETER MEASURED: concentration at 24 h (nM)
Write it as a number; the unit nM goes unstated.

Give the reported concentration at 24 h for this compound. Cl.NC(=O)c1c(OCc2c(F)cc(Br)cc2F)nsc1NC(=O)NCCCCN1CCCC1 [Compound-I, hydrochloride]
283

----------
assay: Ocular pharmacokinetics of formulations, Example 20-4; type: in vivo, Dutch Belted rabbits; details: Dutch Belted, rabbit, central retina, topical, 4 mg/mL (30 μL per eye, bilateral); Group 4: 4 mg/mL FB suspension, PSD 30 μm/XL, HPMC 0.08%, glycerol 2.5%, HEC 0.2%, VitK3 1 μM, pH ≈7.5, QD; Day 5, 1 hr post dose; read-out: Central Retina concentration
PARAMETER MEASURED: concentration at 1 h (nM)
Express it in nM; write the number only.

Give recorded concentration at 1 h. `NC(=O)c1c(OCc2c(F)cc(Br)cc2F)nsc1NC(=O)NCCCCN1CCCC1`
38.4

----------
Assay: Ocular pharmacokinetics of formulations, Example 20-4
Type: in vivo, Dutch Belted rabbits
Conditions: Dutch Belted, rabbit, central retina, topical, 30 μL per eye of 6 mg/mL suspension; Group 6: 6 mg/mL Salt suspension, PSD 30 μm/XL, TRIS 0.60%, glycerol 2%, HEC 0.2%, HPMC 0.08%, VitK3 1 μM, pH 6, QD; Day 5, 1 hr post dose; read-out: Central Retina concentration
Experimental: The study design (Table 18-1) consisted of forty-nine (49) Dutch Belted rabbits, each receiving a 30 μL bilateral topical ocular dose. Ocular sampling occurred one hour following the first daily dose on Day 5 for all groups. Whole blood samples using K2EDTA as an anticoagulant were collected from all animals on Day 5, 1 hour post dose. The whole blood was placed on ice until samples were spun in a centrifuge to separate the plasma. […]
PARAMETER MEASURED: concentration at 1 h (nM)
Give the number; nM is assumed, so skip it.

Indicate its recorded concentration at 1 h; the molecule in question is Cl.NC(=O)c1c(OCc2c(F)cc(Br)cc2F)nsc1NC(=O)NCCCCN1CCCC1 [Compound-I, hydrochloride]
136

----------
assay: Ocular pharmacokinetics of formulations, Example 20-5; assay type: in vivo, Dutch Belted rabbits; conditions: Dutch Belted, rabbit, cornea, topical, 30 μL per eye; Group 12: 10 mg/mL suspension, 50 μm particles, TRIS 0.60%, glycerol 2%, HEC 0.2%, HPMC 0.08%, Vitamin K3 1 μM, pH 6, QD for 4 days; 1 hr post dose on Day 5; read-out: Cornea concentration
PARAMETER MEASURED: concentration at 1 h (µM)
Quick note: give the figure in µM, leave out the unit.

Supply recorded concentration at 1 h for Cl.NC(=O)c1c(OCc2c(F)cc(Br)cc2F)nsc1NC(=O)NCCCCN1CCCC1 [Compound-I, hydrochloride] here.
24.7

----------
test: 1- to 5-day PK with topical ocular Compound-I formulations (Example 5); type: in vivo, Dutch Belted rabbits; conditions: Dutch Belted, rabbit, peripheral choroid, topical, 30 μL (bilateral), Group 5: one dose day 1; 4 hr post-dose; read-out: Average Concentration Peripheral Choroid
PARAMETER MEASURED: concentration at 4 h (µM)
Write it as a number; the unit µM goes unstated.

Name the recorded concentration at 4 h of the item Cl.NC(=O)c1c(OCc2c(F)cc(Br)cc2F)nsc1NC(=O)NCCCCN1CCCC1 [Compound-I, hydrochloride] in your answer.
0.0775

----------
test: Ocular pharmacokinetics of formulations, Example 20-4; type: in vivo, Dutch Belted rabbits; details: Dutch Belted, rabbit, central retina, topical, Group 5: 6 mg/mL FB suspension, PSD 30 μm/XL, HPMC 0.08%, glycerol 2.5%, HEC 0.2%, VitK3 1 μM, pH ≈7.5, QD; Day 5, 1 hr post dose; read-out: Central Retina concentration
PARAMETER MEASURED: concentration at 1 h (nM)
State the answer as a number, implicitly in nM.

Report concentration at 1 h for `NC(=O)c1c(OCc2c(F)cc(Br)cc2F)nsc1NC(=O)NCCCCN1CCCC1`
47.9

----------
test: Ocular pharmacokinetics of formulations, Example 20-5; type: in vivo, Dutch Belted rabbits; details: Dutch Belted, rabbit, central retina, topical, 4 mg/mL, 30 μL per eye, pH 6, Group 1: 4 mg/mL Ophthalmic Solution, pH 6 (Control), QD for 4 days; 1 hr post dose on Day 5; read-out: Central Retina concentration
PARAMETER MEASURED: concentration at 1 h

Look up and state reported concentration at 1 h for Cl.NC(=O)c1c(OCc2c(F)cc(Br)cc2F)nsc1NC(=O)NCCCCN1CCCC1 [Compound-I, hydrochloride]
55.1 nM

----------
assay: 1- to 5-day PK with topical ocular Compound-I formulations (Example 5); assay type: in vivo, Dutch Belted rabbits; conditions: Dutch Belted, rabbit, central retina, topical, 30 μL bilateral (each eye), Groups 1, 5: one dose day 1; 2 hr post-dose; read-out: Average Concentration Central Retina
PARAMETER MEASURED: concentration at 2 h (nM)
Field: numeric (nM). Do not append units.

Report concentration at 2 h for Cl.NC(=O)c1c(OCc2c(F)cc(Br)cc2F)nsc1NC(=O)NCCCCN1CCCC1 [Compound-I, hydrochloride]
35.4

----------
assay: Ocular pharmacokinetics of formulations, Example 20-4; type: in vivo, Dutch Belted rabbits; details: Dutch Belted, rabbit, central choroid, topical, 30 μL per eye of 6 mg/mL suspension; Group 6: 6 mg/mL Salt suspension, PSD 30 μm/XL, TRIS 0.60%, glycerol 2%, HEC 0.2%, HPMC 0.08%, VitK3 1 μM, pH 6, QD; Day 5, 1 hr post dose; read-out: Central Choroid concentration
PARAMETER MEASURED: concentration at 1 h (nM)
Value expressed in nM; do not type the unit.

Supply measured concentration at 1 h of Cl.NC(=O)c1c(OCc2c(F)cc(Br)cc2F)nsc1NC(=O)NCCCCN1CCCC1 [Compound-I, hydrochloride] in your reply.
243
